Hi there, I'd appreciate the recorded growth inhibition for every entry that follows.
# protocol-description: OD615 S. cerevisiae growth inhibition, permissive medium, pilot counter-assay, permissive growth control for S. cerevisiae lifespan shortening project (AID 705)
# test-settings: OD615, 24 h, at 10 µM, hits give high values
Activity calls are given as the source filed them.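 Rule for the calls: active = growth inhibition above 25% in both replicates, a cutoff set 3 SD above the mean; inconclusive = above 25% in only one replicate; inactive = the rest.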

Solved entries (count: 6):
{"columns": ["molecule", "readout-label", "result-value"],
 "data": [
  ["COc1ccc(N(CC(=O)NCc2cccs2)S(=O)(=O)c2c(C)nn(C)c2C)cc1", "growth inhibition", "-2.88% (inactive)"],
  ["Cn1c(=O)c2c(nc(SCCN3CCOCC3)n2Cc2ccc(Cl)cc2)n(C)c1=O", "growth inhibition", "-5.34% (inactive)"],
  ["CCOC(=O)c1sc(NC(=O)c2ccc(Cl)s2)cc1C", "growth inhibition", "-0.47% (inactive)"],
  ["C=C(Br)Cn1c(CC(C)C)nc2ccccc21", "growth inhibition", "13.3% (inactive)"],
  ["CC(=O)Oc1ccc(C(=O)Nc2nccs2)cc1", "growth inhibition", "-7.33% (inactive)"],
  ["COc1ccc(OC)c(CCNC(=O)Cn2sc3nc(C)cc(C)c3c2=O)c1", "growth inhibition", "18.3% (inactive)"]
]}

Go through the list and state growth inhibition for each entry.
1. COc1ccc(S(=O)(=O)N(CCc2ccccc2)CC(=O)O)cc1OC
2. Cc1[nH]n2c(=O)c3c(nc2c1-c1ccc(Cl)cc1)CCC3
3. COc1ccc(S(=O)(=O)N2CCC(C(=O)N3CCc4ccccc4C3)CC2)cc1

Result:
1: -1.68% (inactive); 2: -14.1% (inactive); 3: 11.1% (inactive)
